- Test system: Pseudomonas fluorescens FW300-N2E2
- conditionsUsed: medium / electron acceptor: N2E2 Glucose/aerobic 0.25xMinerals
Reported IC50 growth inhibition by item:

1) [O-][Cl+3]([O-])([O-])O [Sodium perchlorate monohydrate] | 356 mM
2) [Cl-].[Na+] [Sodium Chloride] | 708 mM
3) O.O.O.O.O.O.[Cl-].[Cl-].[Co+2] [Cobalt chloride hexahydrate] | < 0.00244 mM
4) O.O.O.O.[Cl][Mn][Cl] [Manganese (II) chloride tetrahydrate] | > 5 mM

Q: IC50 growth inhibition lookup needed for O.O.[Na+].[Na+].[O]=[W](=[O])([O-])[O-] [Sodium tungstate dihydrate] , thanks.
Result: < 0.244 mM

Q: IC50 growth inhibition lookup needed for OP(O)(O)=S [Sodium thiophosphate tribasic hydrate] , thanks.
Result: > 50 mM

Q: IC50 growth inhibition lookup needed for [K+].[K+].[O]=[Cr](=[O])([O-])[O-] [Potassium chromate] , thanks.
Result: < 0.244 mM

Q: IC50 growth inhibition lookup needed for O.O.O.O.O.O.[Cl][Ni][Cl] [Nickel (II) chloride hexahydrate] , thanks.
Result: 0.00556 mM

Q: IC50 growth inhibition lookup needed for O=[Si](O)O [Sodium metasilicate] , thanks.
Result: < 0.244 mM

Q: IC50 growth inhibition lookup needed for O.O.[Ba+2].[Cl-].[Cl-] [Barium chloride dihydrate] , thanks.
Result: 3.19 mM

Q: IC50 growth inhibition lookup needed for O.[Cl-].[Li+] [Lithium chloride hydrate] , thanks.
Result: > 500 mM

Q: IC50 growth inhibition lookup needed for [Cl][Bi]([Cl])[Cl] [bismuth(III) chloride] , thanks.
Result: 0.00276 mM

----------
- Tested on: Rhodanobacter sp. FW104-10B01
- conditionsUsed: medium / electron acceptor: 10B01 R2A/aerobic
outcomeMeasure: IC50 growth inhibition (mM)
Report as a plain number; the unit mM is understood.

Some compounds with known IC50 growth inhibition results, for comparison:
1) O.O=[Te]([O-])[O-].[K+].[K+] [Potassium tellurite hydrate] | 0.01
2) [Cl-].[Cl-].[Zn+2] [Zinc chloride] | 1.77

Q: Tell me reported IC50 growth inhibition for O.[Cl-].[Li+] [Lithium chloride hydrate] , tested with Rhodanobacter sp. FW104-10B01.
Result: 15.6

Q: Tell me reported IC50 growth inhibition for [Cl-].[Cs+] [Cesium chloride] , tested with Rhodanobacter sp. FW104-10B01.
Result: 0.452

Q: Tell me reported IC50 growth inhibition for [Na+].[Na+].[O]=[Mo](=[O])([O-])[O-] [Sodium molybdate] , tested with Rhodanobacter sp. FW104-10B01.
Result: 354

Q: Tell me reported IC50 growth inhibition for [Cl-].[Cl-].[Sr+2] [Strontium chloride] , tested with Rhodanobacter sp. FW104-10B01.
Result: 354

----------
- Tested on: Pseudomonas fluorescens FW300-N2E2
- conditionsUsed: medium / electron acceptor: N2E2 Glucose/aerobic
outcomeMeasure: IC50 growth inhibition

Some compounds with known IC50 growth inhibition results, for comparison:
1. O.[Au+3].[Cl-].[Cl-].[Cl-] [gold (III) chloride hydrate] | < 0.000244 mM
2. O.O.[Na+].[Na+].[O]=[W](=[O])([O-])[O-] [Sodium tungstate dihydrate] | < 0.244 mM
3. O=[Se](=O)([O-])[O-].[Na+].[Na+] [Sodium selenate] | < 0.244 mM
4. O.O.[Ba+2].[Cl-].[Cl-] [Barium chloride dihydrate] | > 5 mM
5. [O-][Cl+3]([O-])([O-])O [Sodium perchlorate monohydrate] | 67.2 mM

Next compound, IC50 growth inhibition to be filled in.
Q: IC50 growth inhibition lookup needed for [Cl][Pb][Cl] [lead (II) chloride] , thanks.
Result: > 5 mM
